Numbers sourced from BigSolDB 2.1.

- SETTINGS: in acetonitrile, 303.15 K
QUANTITY_NAME: solubility (mole fraction)

Requested read-out: solubility (mole fraction). Entry: NC(=O)N1c2ccccc2CC(=O)c2ccccc21
0.00103

* * *

- SETTINGS: in n-propanol, 298.15 K
QUANTITY_NAME: solubility (mole fraction)
When you answer, write just the number.

Could you share which solubility (mole fraction) value was measured for NC(=O)N1c2ccccc2CC(=O)c2ccccc21 ?
0.000358

* * *

- SETTINGS: in ethanol, 293.15 K
QUANTITY_NAME: solubility (mole fraction)
# print the numeric value only

// solubility (mole fraction) lookup, key: NC(=O)N1c2ccccc2CC(=O)c2ccccc21
0.000322
